system name: Human Serotonin Transporter (hSERT) (Homo sapiens, UniProt P31645)
Construct: expressed in transfected cells; host or cells: HEK-293, membrane preparation
Sequence (P31645 whole entry): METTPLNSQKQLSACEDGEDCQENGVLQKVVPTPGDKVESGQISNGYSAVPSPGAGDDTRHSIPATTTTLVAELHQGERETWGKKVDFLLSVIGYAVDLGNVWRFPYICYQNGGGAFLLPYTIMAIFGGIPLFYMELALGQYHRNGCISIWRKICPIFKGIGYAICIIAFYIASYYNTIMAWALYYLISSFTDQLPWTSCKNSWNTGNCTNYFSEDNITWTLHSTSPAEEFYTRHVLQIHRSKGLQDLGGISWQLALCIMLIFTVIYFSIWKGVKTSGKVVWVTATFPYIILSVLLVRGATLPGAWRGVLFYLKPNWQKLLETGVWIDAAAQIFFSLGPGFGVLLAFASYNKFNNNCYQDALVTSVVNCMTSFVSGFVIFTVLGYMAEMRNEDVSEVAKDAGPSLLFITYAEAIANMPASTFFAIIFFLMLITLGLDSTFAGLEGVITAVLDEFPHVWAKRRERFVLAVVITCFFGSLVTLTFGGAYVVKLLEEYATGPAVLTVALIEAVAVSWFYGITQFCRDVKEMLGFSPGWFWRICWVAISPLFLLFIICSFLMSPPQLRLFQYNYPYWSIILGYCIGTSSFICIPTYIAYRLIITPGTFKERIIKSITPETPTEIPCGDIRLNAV
protocol description: hSERT scintillation proximity assay (SPA), competition with [3H]-Citalopram
Type: binding
condition parameters: pKi, membranes of HEK-293 cells expressing recombinant hSERT, read-out: SERT (converted)
Label 1 when Ki is strictly below 400 nM; otherwise label -1.

compound: Clc1ccc(C2CNCCCN2c2ccccc2)cc1 (stereo not shown) [Compound 16]
answer label: 1
//
compound: COc1ccccc1C1CCNCCN1c1ccccc1 (stereo not shown) [Compound 17]
answer label: 1
//
compound: Fc1ccc(C2CCNCCN2c2ccccc2)cc1 (stereo not shown) [Compound 23]
answer label: -1
//
compound: COc1ccccc1C1CNCCCN1c1ccccc1 (stereo not shown) [Compound 18]
answer label: -1
//
compound: Clc1ccccc1C1CCNCCN1c1ccccc1 (stereo not shown) [Compound 19]
answer label: 1

###

system name: Human Norepinephrine Transporter (hNET) (Homo sapiens)
Construct: expressed in transfected cells; host or cells: HEK-293 (Clone: HEK-hNET #2), membrane preparation
Sequence (P23975 whole entry): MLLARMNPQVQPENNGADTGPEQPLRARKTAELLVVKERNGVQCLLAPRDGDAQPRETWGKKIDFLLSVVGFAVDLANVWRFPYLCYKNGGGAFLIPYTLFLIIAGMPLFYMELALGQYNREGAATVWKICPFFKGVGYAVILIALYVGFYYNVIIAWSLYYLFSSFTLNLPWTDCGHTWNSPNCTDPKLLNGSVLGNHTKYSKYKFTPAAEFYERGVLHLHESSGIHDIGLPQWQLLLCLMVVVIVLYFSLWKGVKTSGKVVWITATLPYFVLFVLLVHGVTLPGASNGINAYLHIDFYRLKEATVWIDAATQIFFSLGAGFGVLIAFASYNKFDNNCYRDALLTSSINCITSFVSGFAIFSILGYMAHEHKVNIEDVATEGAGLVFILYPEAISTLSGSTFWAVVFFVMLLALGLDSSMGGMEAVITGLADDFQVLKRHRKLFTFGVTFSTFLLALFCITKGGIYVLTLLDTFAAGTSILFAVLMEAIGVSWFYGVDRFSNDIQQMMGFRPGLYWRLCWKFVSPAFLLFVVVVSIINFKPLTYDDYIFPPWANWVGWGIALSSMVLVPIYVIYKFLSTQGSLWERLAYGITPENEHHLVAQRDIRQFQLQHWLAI
protocol description: hNET scintillation proximity assay (SPA), competition with [3H]-Nisoxetine
Format: binding
condition parameters: pKi, membranes of HEK-293 cells expressing recombinant hNET, read-out: NET (converted)
Reported Ki values follow for various compounds

compound: Clc1ccc(C2CCNCCN2c2ccccc2)cc1 (centres unmarked) [Compound 15]
Ki (nM): 229
--
compound: c1ccc(C2CNCCCN2c2ccccc2)cc1 (centres unmarked) [Compound 11, 1,2-Diphenyl-[1,4]diazepane]
Ki (nM): 282
--
compound: Fc1ccc(C2CNCCCN2c2ccccc2)cc1 (centres unmarked) [Compound 24]
Ki (nM): 214
--
compound: Fc1ccc([C@@H]2OCCNC[C@@H]2c2ccccc2)cc1 [Compound 10]
Ki (nM): 432
--
compound: COc1ccc(C2CCNCCN2c2ccccc2)cc1 (centres unmarked) [Compound 13]
Ki (nM): 676

###

system name: Human Serotonin Transporter (hSERT) (Homo sapiens, UniProt P31645)
Construct: expressed in transfected cells; host or cells: HEK-293, membrane preparation
protocol description: hSERT scintillation proximity assay (SPA), competition with [3H]-Citalopram
Format: binding
condition parameters: pKi, membranes of HEK-293 cells expressing recombinant hSERT, read-out: SERT (converted)
measured attribute: log10(Ki) (log10 of the value in nM)

molecule: COc1ccc(C2CCNCCN2c2ccccc2)cc1 (stereo not shown)
log10(Ki): 2.02
--
molecule: COc1ccc(C2CNCCCN2c2ccccc2)cc1 (stereo not shown)
log10(Ki): 2.21
--
molecule: c1ccc([C@H]2CNCCO[C@@H]2c2ccccc2)cc1 [Compound 5, (6S,7S)-6,7-Diphenyl-[1,4]oxazepane]
log10(Ki): 2.84
--
molecule: Fc1ccc([C@@H]2OCCNC[C@@H]2c2ccccc2)cc1
log10(Ki): 2.37
--
molecule: c1ccc([C@H]2CCCNC[C@@H]2c2ccccc2)cc1
log10(Ki): 2.35
--
molecule: c1ccc(C2CNCCCN2c2ccccc2)cc1 (stereo not shown) [Compound 11, 1,2-Diphenyl-[1,4]diazepane]
log10(Ki): 2.89
--
molecule: c1ccc([C@H]2CCNCC[C@@H]2c2ccccc2)cc1
log10(Ki): 2.67
--
molecule: COc1ccccc1[C@H]1CCNCC[C@H]1c1ccccc1
log10(Ki): 0.60
--
molecule: c1ccc([C@H]2CCNCC[C@H]2c2ccccc2)cc1
log10(Ki): 0.97
--
molecule: COc1ccc([C@@H]2OCCNC[C@@H]2c2ccccc2)cc1
log10(Ki): 1.54

###

system name: Human Serotonin Transporter (hSERT) (Homo sapiens)
Construct: expressed in transfected cells; host or cells: HEK-293, membrane preparation
protocol description: hSERT scintillation proximity assay (SPA), competition with [3H]-Citalopram
Format: binding
condition parameters: pKi, membranes of HEK-293 cells expressing recombinant hSERT, read-out: SERT (converted)
Reported Ki values follow for various molecules

molecule: Clc1ccccc1C1CNCCCN1c1ccccc1 (centres unmarked) [Compound 20]
system name: Human Serotonin Transporter (hSERT) (Homo sapiens)
Ki: 394 nM
//
molecule: c1ccc(C2CCNCCN2c2ccccc2)cc1 (centres unmarked) [Compound 12, 1,7-Diphenyl-[1,4]diazepane]
system name: Human Serotonin Transporter (hSERT) (Homo sapiens)
Ki: 407 nM
//
molecule: Clc1ccc(C2CCNCCN2c2ccccc2)cc1 (centres unmarked) [Compound 15]
system name: Human Serotonin Transporter (hSERT) (Homo sapiens)
Ki: 407 nM
//
molecule: Fc1ccccc1[C@@H]1OCCNC[C@@H]1c1ccccc1 [Compound 9]
system name: Human Serotonin Transporter (hSERT) (Homo sapiens)
Ki: 398 nM
//
molecule: COc1ccccc1[C@@H]1OCCNC[C@@H]1c1ccccc1 [Compound 7]
system name: Human Serotonin Transporter (hSERT) (Homo sapiens)
Ki: 398 nM
